From: paper PMC10397247

Target: T1, 4H56-bA
T1 chain: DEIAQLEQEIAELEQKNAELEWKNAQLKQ
Assay: two-hybrid library CCNG1;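 also: natural log of median RNA to DNA barcode read ratio; higher means stronger binding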
Some binders, each annotated with its measured interaction score.
measure: interaction score

>>> df
                                     binder  recorded_value
0  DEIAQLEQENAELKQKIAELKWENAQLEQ [4H235-bA]           -1.05
1   DEIAQLEQEIAELEQKNAELEWKNAQLKQ [4H56-bA]          -0.593
2  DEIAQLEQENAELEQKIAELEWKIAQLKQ [4H166-bA]          -0.289
3  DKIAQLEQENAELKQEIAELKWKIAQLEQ [4H2253-bA]         -0.0723
